Biological target: T1, PUF4 RNA-binding domain (Saccharomyces cerevisiae, UniProt P25339 537-888)
T1 sequence: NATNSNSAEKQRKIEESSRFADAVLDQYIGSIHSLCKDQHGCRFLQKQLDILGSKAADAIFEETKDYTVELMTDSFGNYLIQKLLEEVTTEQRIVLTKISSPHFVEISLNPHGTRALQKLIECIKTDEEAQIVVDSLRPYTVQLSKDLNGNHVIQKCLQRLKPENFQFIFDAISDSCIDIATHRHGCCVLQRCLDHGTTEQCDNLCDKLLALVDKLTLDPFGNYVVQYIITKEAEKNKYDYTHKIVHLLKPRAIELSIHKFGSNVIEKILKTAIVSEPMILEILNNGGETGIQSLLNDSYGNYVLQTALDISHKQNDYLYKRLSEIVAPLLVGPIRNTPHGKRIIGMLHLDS
Experiment: Mg; RNA-MaP; 20 mM Na-HEPES pH 7.4, 30 mM KOAc, 0.75 mM MgCl2, 0.1% Tween-20, 5% glycerol, 0.1 mg/mL BSA, 2 mM DTT; 25 C; 0.0125-409.6 nM protein
Conditions: tags: N-His6-TEV cleaved; C-SNAP kept, Cy3B-labelled; label: tethered on chip by stalled RNA polymerase
measured.property: Kd (nM)

binder | qualifier | assay.result
Ic_S2_P3E.1_K3.1_C3.1_H3.1_A3.1_[A6C]_F3.1_[T7A]_[A8T]_T3.1 (ssRNA) RNA: UUUGAUUAAUAUGAUAUCGUUCUUUCUUGUAUCAUUUCUUUCUCGAUAUCAUAUUAAUCUUU | = | 4.83
UCUCUUCCACACUAUAAAUCUCUU (ssRNA) [Id_ii_S1_P3E.4_K3.3_C3.2_[T-1C]_H3.3_A3.1_F3.1_T3.2_[T9A]] | > | 2300
ACAAACUUUAUAUAUUACGACAAAC (ssRNA) [Id_ii_S3_P4E.3_K4.2_C4.2_[C-2T]_H4.2_A4.1_F4.1_T4.2_[G10C]_[T11G]] | = | 19.4
UCUCUUCGACACUAUUACCUCUCUU (ssRNA) [Id_ii_S1_P4E.4_K4.3_C4.2_[T-1G]_H4.3_A4.1_F4.1_T4.2_[G10C]_[T11C]] | > | 2300
